Reference for the values: patent US20110245284A1

# assay.overview: logP by LC-MS on reversed-phase columns (C 18), method [b], acidic range pH 2.7
# Format: physicochemical
# condition: pH 2.7
log p values for the molecules below.

- molecule: "CCS(=O)(=O)C(C)c1cccc(Nc2ncc(C(F)(F)F)c(NCC3CC3)n2)c1 (stereo not drawn)"
  log p: "2.65[b]"
- molecule: "COC(c1cccc(Nc2ncc(Cl)c(NCC(F)F)n2)c1)C(F)(F)F (stereo not drawn)"
  log p: "2.93[b]"
- molecule: "COCc1cccc(Nc2ncc(Cl)c(N3CCOCC3)n2)c1"
  log p: "2.4[b]"
- molecule: "CCS(=O)(=O)C(C)c1cccc(Nc2ncc(C(F)(F)F)c(NC3CCCC3)n2)c1 (stereo not drawn)"
  log p: "3.27[b]"
- molecule: "C=C(C)CSc1cccc(Nc2ncc(Cl)c(NC3CC3)n2)c1"
  log p: "3.59[b]"
- molecule: "CCCC(C)[S+]([O-])C(C)c1cccc(Nc2ncc(C(F)(F)F)c(NC3CC3)n2)c1 (stereo not drawn)"
  log p: "3.34[b]"
- molecule: "CCCC(C)[S+]([O-])C(C)c1cccc(Nc2ncc(Cl)c(NC3CC3)n2)c1 (stereo not drawn)"
  log p: "2.2[b]"
- molecule: "FC(F)C(F)(F)COCc1cccc(Nc2ncc(C(F)(F)F)c(NC3CC3)n2)c1"
  log p: "3.7[b]"
- molecule: "CCCN(c1nc(Nc2cccc(COC)c2)ncc1Cl)C1CC1"
  log p: "3.68[b]"
- molecule: "COCCOCCOc1ccc(Nc2ncc(C(F)(F)F)c(NC3CC3)n2)cc1Cl"
  log p: "3.2[b]"
- molecule: "CCS(=O)(=O)C(C)c1cccc(Nc2ncc(C(F)(F)F)c(NC3CC3)n2)c1 (stereo not drawn)"
  log p: "2.49[b]"
- molecule: "FC(F)(F)COCc1cccc(Nc2ncc(Cl)c(NC3CC3)n2)c1"
  log p: "2.56[b]"
- molecule: "CCSC(C)c1cccc(Nc2ncc(Cl)c(NC3CC3C(F)(F)F)n2)c1 (stereo not drawn)"
  log p: "3.93[b]"
- molecule: "COCCOC(c1cccc(Nc2ncc(Cl)c(NC3CC3)n2)c1)C(F)(F)F (stereo not drawn)"
  log p: "2.63[b]"
- molecule: "CCCC(C)S(=O)(=O)C(C)c1cccc(Nc2ncc(Cl)c(NC3CC3)n2)c1 (stereo not drawn)"
  log p: "2.48[b]"
- molecule: "CCS(=O)(=O)C(C)c1cccc(Nc2ncc(Br)c(NC3CCC3)n2)c1 (stereo not drawn)"
  log p: "2.03[b]"
- molecule: "C=C(C)CSc1cccc(Nc2ncc(Br)c(NC3CC3)n2)c1"
  log p: "4.25[b]"
- molecule: "COCc1cccc(Nc2ncc(Cl)c(N3CCCCC3)n2)c1"
  log p: "3.14[b]"
